- Assayed target: Human immunodeficiency virus type 1 protease (Human immunodeficiency virus 1)
- Assay name: Concentration that inhibits cellular growth of MT-4 cells acutely infected with HIV-1 RFstrain by 50%
- Type: functional, cell-based
- Measurement parameters: MT4
Observed property: ED50 (µM)
Answers are plain numbers, in µM.

Example results:
COC(=O)[C@H](NC(=O)C(F)(F)C(=O)C(Cc1ccc(OCc2ccccc2)cc1)NC(=O)[C@@H](NC(=O)OCc1ccccc1)C(C)C)C(C)C (some centres undefined) | 0.022
CC(C)[C@H](NC(=O)OCc1ccccc1)C(=O)NC(Cc1ccc(OCc2ccccc2)cc1)C(=O)C(F)(F)C(=O)N[C@@H](C(=O)OC(C)(C)C)C(C)C (some centres undefined) | 0.24
CC(C)NC(=O)C(F)(F)C(=O)C(Cc1ccc(OCc2ccccc2)cc1)NC(=O)[C@@H](NC(=O)OCc1ccccc1)C(C)C (some centres undefined) | 0.32

Now, please, on to the next molecule.
Give the measured ED50 for CC(C)(C)NC(=O)[C@@H]1C[C@@H]2CCCC[C@@H]2CN1C[C@@H](O)[C@H](Cc1ccccc1)NC(=O)[C@H](CC(N)=O)NC(=O)c1ccc2ccccc2n1 0.006

----------
- Assayed target: Human immunodeficiency virus type 1 protease (Human immunodeficiency virus 1)
- Assay name: Concentration that inhibits cellular growth of MT-4 cells acutely infected with HIV-1 RFstrain by 50%
- Format: functional, cell-based
- Measurement parameters: MT4
Observed property: ED50

Example results:
CC(C)[C@H](COCc1ccccc1)NC(=O)C(F)(F)C(=O)C(Cc1ccc(OCc2ccccc2)cc1)NC(=O)[C@H](NC(=O)OCc1ccccc1)C(C)C (stereo partly drawn) | > 95 µM
CC(C)[C@H](COCc1ccccc1)NC(=O)C(F)(F)[C@@H](O)C(Cc1ccc(OCc2ccccc2)cc1)NC(=O)[C@@H](NC(=O)OCc1ccccc1)C(C)C (stereo partly drawn) | > 100 µM

Consider the compound CC(C)[C@H](COCc1ccccc1)NC(=O)C(F)(F)[C@H](O)C(Cc1ccc(OCc2ccccc2)cc1)NC(=O)[C@@H](NC(=O)OCc1ccccc1)C(C)C (stereo partly drawn) tested on Human immunodeficiency virus type 1 protease (Human immunodeficiency virus 1); state its ED50. > 100 µM

----------
What CD50 was measured for each of the following?
- Assay name: Cytotoxic activity was determined against HIV-1 infected MT-4 cells.
- Type: functional, cell-based
- Measurement parameters: MT4

CC(C)[C@H](NC(=O)OCc1ccccc1)C(=O)NC(Cc1ccc(OCc2ccccc2)cc1)C(=O)C(F)(F)C(=O)N[C@@H](C(=O)O)C(C)C (stereo partly drawn) | > 100 µM
CC(C)(C)NC(=O)[C@@H]1C[C@@H]2CCCC[C@@H]2CN1C[C@@H](O)[C@H](Cc1ccccc1)NC(=O)[C@H](CC(N)=O)NC(=O)c1ccc2ccccc2n1 | > 10 µM

Now, please, on to the next compound.
Give the measured CD50 for Cc1cn([C@H]2C[C@H](N=[N+]=[N-])[C@@H](CO)O2)c(=O)[nH]c1=O > 10 µM

----------
- Assayed target: Human immunodeficiency virus type 1 protease (Human immunodeficiency virus 1, UniProt Q72874)
pIC50: −log10 of the molar value.
Observed property: pIC50

CO[C@H](NC(=O)C(F)(F)C(=O)C(Cc1ccc(OCc2ccccc2)cc1)NC(=O)[C@@H](NC(=O)OCc1ccccc1)C(C)C)C(C)C (some centres undefined) | > 8.00
COCCOCO[C@H](NC(=O)C(F)(F)C(=O)C(Cc1ccc(OCc2ccccc2)cc1)NC(=O)[C@@H](NC(=O)OCc1ccccc1)C(C)C)C(C)C (some centres undefined) | > 8.00
COC(=O)[C@H](NC(=O)C(F)(F)C(=O)C(Cc1ccc(OCc2ccccc2)cc1)NC(=O)[C@@H](NC(=O)OCc1ccccc1)C(C)C)C(C)C (some centres undefined) | > 8.00

Give the measured pIC50 for COCCOCCO[C@H](NC(=O)C(F)(F)C(=O)C(Cc1ccc(OCc2ccccc2)cc1)NC(=O)[C@@H](NC(=O)OCc1ccccc1)C(C)C)C(C)C (some centres undefined) > 7.82

These data points were gathered from ChEMBL document CHEMBL1127883.
